Data origin, for the record: patent US9206139B2

- test.system: MMP13 (Homo sapiens (Human), UniProt P45452)
property.measured: pIC50
Note: pIC50 values are expressed as the negative base-10 logarithm of concentration in M.

Report pIC50 for `CC[C@H](Cc1ccc(C(F)(F)F)cc1)C(=O)NC[C@@]1(C2CC2)NC(=O)NC1=O`
5.38

---

- test.system: MMP3 (Homo sapiens (Human), UniProt P08254)
- Sequence (P08254 100-477, species assumed): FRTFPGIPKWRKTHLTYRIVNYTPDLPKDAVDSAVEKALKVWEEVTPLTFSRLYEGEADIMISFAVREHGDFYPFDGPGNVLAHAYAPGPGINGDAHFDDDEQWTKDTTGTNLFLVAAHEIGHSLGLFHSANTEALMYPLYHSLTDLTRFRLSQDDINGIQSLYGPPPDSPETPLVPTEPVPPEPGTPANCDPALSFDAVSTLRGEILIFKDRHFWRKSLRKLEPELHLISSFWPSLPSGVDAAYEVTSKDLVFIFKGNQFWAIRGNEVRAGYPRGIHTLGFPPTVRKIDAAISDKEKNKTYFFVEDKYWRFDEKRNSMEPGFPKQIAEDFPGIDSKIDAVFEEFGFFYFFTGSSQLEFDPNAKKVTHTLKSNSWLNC
property.measured: IC50 (µM)
Report the figure in µM without appending any unit label.

Determine reported IC50 for `CC[C@H](Cc1ccc(C(F)(F)F)cc1)C(=O)NC[C@@]1(C2CC2)NC(=O)NC1=O` ; test system: MMP3 (Homo sapiens (Human), UniProt P08254).
15.3

---

Known pIC50 of a selection of molecules
- test.system: MMP-2 (Homo sapiens (Human))
- Sequence (P08253 110-660): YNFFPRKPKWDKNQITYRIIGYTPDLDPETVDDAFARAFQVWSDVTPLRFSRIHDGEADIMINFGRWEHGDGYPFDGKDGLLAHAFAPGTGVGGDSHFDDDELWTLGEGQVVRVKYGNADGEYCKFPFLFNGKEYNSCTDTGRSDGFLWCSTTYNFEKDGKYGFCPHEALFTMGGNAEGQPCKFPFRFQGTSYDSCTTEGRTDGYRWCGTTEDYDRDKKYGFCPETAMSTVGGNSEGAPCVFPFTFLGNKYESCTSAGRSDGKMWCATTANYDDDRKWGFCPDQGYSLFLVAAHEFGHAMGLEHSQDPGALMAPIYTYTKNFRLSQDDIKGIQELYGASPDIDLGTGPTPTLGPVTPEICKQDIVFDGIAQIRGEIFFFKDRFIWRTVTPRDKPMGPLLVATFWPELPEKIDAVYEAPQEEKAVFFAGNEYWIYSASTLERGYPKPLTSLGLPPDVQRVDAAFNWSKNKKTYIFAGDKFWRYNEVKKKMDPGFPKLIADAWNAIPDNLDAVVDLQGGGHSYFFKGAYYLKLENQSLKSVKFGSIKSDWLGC
Scale: pIC50 equals -log10([C]), with [C] in mol/L.

# smiles.string, assay.result
rows = [
    ("O=C1NC(=O)[C@](CNC(=O)[C@@H](Cc2ccc(C(F)(F)F)cc2)C2CC2)(C2CC2)N1", 4.46),
]

Next item in the queue.
Answer briefly: pIC50 recorded on MMP-2 (Homo sapiens (Human)) for `CC[C@H](Cc1ccc(C(F)(F)F)cc1)C(=O)NC[C@@]1(C2CC2)NC(=O)NC1=O`
6.15

---

- test.system: dog ADAMTS-4 (Canis lupus familiaris, UniProt A0A8I3Q3A2)
- Sequence (A0A8I3Q3A2 1-992): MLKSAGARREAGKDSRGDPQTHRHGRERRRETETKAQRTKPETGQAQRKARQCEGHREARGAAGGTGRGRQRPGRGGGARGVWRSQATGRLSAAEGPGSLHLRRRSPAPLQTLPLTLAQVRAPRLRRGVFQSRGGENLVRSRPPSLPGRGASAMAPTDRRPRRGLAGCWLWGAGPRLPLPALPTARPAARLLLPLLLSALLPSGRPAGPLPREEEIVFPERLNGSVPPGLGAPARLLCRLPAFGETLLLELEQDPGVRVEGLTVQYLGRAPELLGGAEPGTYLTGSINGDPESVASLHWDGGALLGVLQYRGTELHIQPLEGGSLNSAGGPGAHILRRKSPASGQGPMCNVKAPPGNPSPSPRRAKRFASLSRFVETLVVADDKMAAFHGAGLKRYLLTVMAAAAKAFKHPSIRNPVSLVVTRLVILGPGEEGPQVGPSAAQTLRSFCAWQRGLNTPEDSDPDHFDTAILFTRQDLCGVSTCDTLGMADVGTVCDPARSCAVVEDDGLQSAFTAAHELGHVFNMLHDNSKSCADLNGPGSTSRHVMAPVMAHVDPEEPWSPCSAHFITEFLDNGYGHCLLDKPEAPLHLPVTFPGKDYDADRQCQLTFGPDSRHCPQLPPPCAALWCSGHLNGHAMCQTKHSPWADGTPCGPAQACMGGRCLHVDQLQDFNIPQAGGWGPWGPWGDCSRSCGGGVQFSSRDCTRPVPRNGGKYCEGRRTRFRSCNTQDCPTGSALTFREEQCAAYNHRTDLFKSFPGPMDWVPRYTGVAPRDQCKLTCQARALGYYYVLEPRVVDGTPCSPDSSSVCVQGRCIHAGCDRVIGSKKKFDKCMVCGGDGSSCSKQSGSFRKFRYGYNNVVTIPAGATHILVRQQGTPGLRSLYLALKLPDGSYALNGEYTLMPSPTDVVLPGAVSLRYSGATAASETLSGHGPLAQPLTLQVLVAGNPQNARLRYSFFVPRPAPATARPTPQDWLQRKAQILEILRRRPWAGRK
- protocol.notes: Dog ADAMTS-4 AlphaScreen assay
- Assay type: biochemical
- reported.conditions: purified dog ADAMTS-4 enzyme
property.measured: IC50 (nM)
Number in nM, nothing else.

Given the molecule `CC[C@H](Cc1ccc(C(F)(F)F)cc1)C(=O)NC[C@@]1(C2CC2)NC(=O)NC1=O` , write its reported IC50.
1

---

- test.system: MMP12 (Homo sapiens (Human))
- Sequence (P39900 106-470, species assumed): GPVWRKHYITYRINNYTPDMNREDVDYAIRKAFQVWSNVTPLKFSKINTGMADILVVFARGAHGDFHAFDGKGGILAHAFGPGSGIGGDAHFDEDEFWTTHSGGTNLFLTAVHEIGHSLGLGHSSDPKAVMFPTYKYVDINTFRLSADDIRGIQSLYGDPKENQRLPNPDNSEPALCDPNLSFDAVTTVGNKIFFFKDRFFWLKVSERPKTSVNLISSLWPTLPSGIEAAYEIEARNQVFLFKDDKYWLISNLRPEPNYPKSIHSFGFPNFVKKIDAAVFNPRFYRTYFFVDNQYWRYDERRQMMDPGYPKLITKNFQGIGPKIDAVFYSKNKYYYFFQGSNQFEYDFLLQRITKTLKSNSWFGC
property.measured: pIC50
Lab note — pIC50 values are minus log10 of concentrations in M.

The examples below pair each entry with its known result.
# smiles.string, pIC50
measured = [
    ("CC(C)[C@H](Cc1ccc(C(F)(F)F)cc1)C(=O)NC[C@@]1(C2CC2)NC(=O)NC1=O", 5.47),
    ("CC(C)(Cc1ccc(C(F)(F)F)cc1)C(=O)NC[C@@]1(C2CC2)NC(=O)NC1=O", 7.15),
]

Next:
Please respond with reported pIC50 (system MMP12 (Homo sapiens (Human))) for `CC[C@H](Cc1ccc(C(F)(F)F)cc1)C(=O)NC[C@@]1(C2CC2)NC(=O)NC1=O` .
7.59

---

MMP8 (Homo sapiens (Human), UniProt P22894): reported pIC50 for various molecules.
Sequence (P22894 101-467, species assumed): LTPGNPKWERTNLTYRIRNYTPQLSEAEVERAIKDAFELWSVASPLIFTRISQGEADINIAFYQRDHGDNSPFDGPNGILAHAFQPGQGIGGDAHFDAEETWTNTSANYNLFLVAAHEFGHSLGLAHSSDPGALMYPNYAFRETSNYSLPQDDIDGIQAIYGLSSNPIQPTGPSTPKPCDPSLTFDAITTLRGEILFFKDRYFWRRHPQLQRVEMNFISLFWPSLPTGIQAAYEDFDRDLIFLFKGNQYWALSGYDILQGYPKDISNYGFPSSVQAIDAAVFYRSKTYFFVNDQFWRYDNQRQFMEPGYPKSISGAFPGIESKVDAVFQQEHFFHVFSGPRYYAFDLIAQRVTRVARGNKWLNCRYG
Units for pIC50: none; it is -log10 of a concentration expressed in mol/L.

# smiles.string, pIC50
records = [
    ("CC(C)[C@H](Cc1ccc(C(F)(F)F)cc1)C(=O)NC[C@@]1(C2CC2)NC(=O)NC1=O", 5.28),
]

Output measured pIC50 for this item: `O=C1NC(=O)[C@](CNC(=O)[C@@H](Cc2ccc(C(F)(F)F)cc2)C2CC2)(C2CC2)N1`
6.09
